- System: E. coli TESEC Mtb Asd
- method_notes: growth (OD600 after 10 h); higher = more growth (less inhibition)
- condition_label: arabinose induction (level): Low; compound 0.1 mM; raw OD600 reference: median of DMSO wells 0.417, cell-free background 0.041
Counter-ions that a name gives are not always drawn.

- molecule: "CC(C)NCC(O)COc1ccc(CCOCC2CC2)cc1 (stereo not given) [Betaxolol hydrochloride]"
  growth: 0.359
- molecule: "O=C1NCCN1c1ncc([N+](=O)[O-])s1"
  growth: 0.203
- molecule: "Cc1c(OCC(F)(F)F)ccnc1C[S+]([O-])c1nc2ccccc2[nH]1 (stereo not given)"
  growth: 0.191
- molecule: "OCC(O)CN1CCN(c2ccccc2)CC1 (racemic) [Dropropizine (R,S)]"
  growth: 0.424
- molecule: "O=C(CCCCCCC(=O)Nc1ccccc1)NO"
  growth: 0.335
